# Ki listing for each entry below
- TESTED ON: Kappa-type opioid receptor (Rattus norvegicus)
- Sequence (P34975 whole entry): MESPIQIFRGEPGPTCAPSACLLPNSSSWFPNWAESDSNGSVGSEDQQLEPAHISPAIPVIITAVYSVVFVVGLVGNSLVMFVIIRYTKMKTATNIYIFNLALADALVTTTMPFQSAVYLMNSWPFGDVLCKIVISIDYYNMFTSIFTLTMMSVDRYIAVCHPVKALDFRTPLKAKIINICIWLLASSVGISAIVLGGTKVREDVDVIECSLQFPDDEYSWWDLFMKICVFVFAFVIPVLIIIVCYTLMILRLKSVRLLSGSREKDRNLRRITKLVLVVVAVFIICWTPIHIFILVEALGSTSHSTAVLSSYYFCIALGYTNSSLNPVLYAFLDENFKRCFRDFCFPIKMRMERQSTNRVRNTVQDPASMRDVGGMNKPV
REPORTED METRIC: Ki

- CC[C@H](C)[C@H](NC(=O)[C@H](CCC(=O)O)NC(=O)[C@]1(NC(=O)[C@@H](C)NC(=O)[C@@H](N)Cc2ccc(O)cc2)CCc2ccccc2C1)C(=O)N[C@H](C(=O)NCC(N)=O)[C@@H](C)CC: > 10 µM
- CC[C@H](C)[C@H](NC(=O)[C@H](CC(=O)O)NC(=O)[C@H](Cc1ccccc1)NC(=O)[C@@H](C)NC(=O)[C@@H](N)Cc1ccc(O)cc1)C(=O)N[C@H](C(=O)NCC(N)=O)[C@@H](C)CC: > 10 µM
- CC[C@H](C)[C@H](NC(=O)[C@H](CCC(=O)O)NC(=O)[C@H](Cc1ccccc1)NC(=O)[C@@H](C)NC(=O)[C@@H](N)Cc1ccc(O)cc1)C(=O)N[C@H](C(=O)NCC(N)=O)[C@@H](C)CC: > 10 µM

----------
Quick reference: Ki of the listed items.
- TESTED ON: Delta-type opioid receptor (Rattus norvegicus)
- PROTOCOL DETAILS: The binding affinity was measured using [3H]-DIDII against Opioid receptor delta 1 of rat brain
REPORTED METRIC: Ki (nM)

* CC[C@H](C)[C@H](NC(=O)[C@H](CCC(=O)O)NC(=O)[C@]1(NC(=O)[C@@H](C)NC(=O)[C@@H](N)Cc2ccc(O)cc2)CCc2ccccc2C1)C(=O)N[C@H](C(=O)NCC(N)=O)[C@@H](C)CC | 0.035
* CC[C@H](C)[C@H](NC(=O)[C@H](CC(=O)O)NC(=O)[C@H](Cc1ccccc1)NC(=O)[C@@H](C)NC(=O)[C@@H](N)Cc1ccc(O)cc1)C(=O)N[C@H](C(=O)NCC(N)=O)[C@@H](C)CC | 0.056

----------
- TESTED ON: Delta-type opioid receptor (Rattus norvegicus, UniProt P33533)
- Sequence (P33533 whole entry): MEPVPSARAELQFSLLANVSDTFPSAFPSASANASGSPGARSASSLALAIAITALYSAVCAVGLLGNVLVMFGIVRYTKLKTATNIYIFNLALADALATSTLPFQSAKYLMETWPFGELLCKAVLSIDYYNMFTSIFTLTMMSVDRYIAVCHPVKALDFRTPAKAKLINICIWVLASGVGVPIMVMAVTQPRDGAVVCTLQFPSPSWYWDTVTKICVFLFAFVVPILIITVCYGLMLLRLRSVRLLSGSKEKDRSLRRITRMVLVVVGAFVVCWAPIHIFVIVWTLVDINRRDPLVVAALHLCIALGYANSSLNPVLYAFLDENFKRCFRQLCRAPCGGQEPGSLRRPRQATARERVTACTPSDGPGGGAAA
- PROTOCOL DETAILS: The binding affinity was measured using [3H]naltrindole against Opioid receptor delta 1 of rat brain
pKi: −log10 of the molar value.
# pKi annotations
REPORTED METRIC: pKi

- CC[C@H](C)[C@H](NC(=O)[C@H](CCC(=O)O)NC(=O)[C@]1(NC(=O)[C@@H](C)NC(=O)[C@@H](N)Cc2ccc(O)cc2)CCc2ccccc2C1)C(=O)N[C@H](C(=O)NCC(N)=O)[C@@H](C)CC: 9.29
- CC[C@H](C)[C@H](NC(=O)[C@H](CC(=O)O)NC(=O)[C@H](Cc1ccccc1)NC(=O)[C@@H](C)NC(=O)[C@@H](N)Cc1ccc(O)cc1)C(=O)N[C@H](C(=O)NCC(N)=O)[C@@H](C)CC: 10.33

----------
- TESTED ON: Delta-type opioid receptor (Rattus norvegicus, UniProt P33533)
- PROTOCOL DETAILS: The binding affinity was measured using [3H]- TIPPsi against Opioid receptor delta 1
REPORTED METRIC: Ki

- CC[C@H](C)[C@H](NC(=O)[C@H](CCC(=O)O)NC(=O)[C@]1(NC(=O)[C@@H](C)NC(=O)[C@@H](N)Cc2ccc(O)cc2)CCc2ccccc2C1)C(=O)N[C@H](C(=O)NCC(N)=O)[C@@H](C)CC: 0.38 nM
- CC[C@H](C)[C@H](NC(=O)[C@H](CC(=O)O)NC(=O)[C@H](Cc1ccccc1)NC(=O)[C@@H](C)NC(=O)[C@@H](N)Cc1ccc(O)cc1)C(=O)N[C@H](C(=O)NCC(N)=O)[C@@H](C)CC: 0.018 nM
